experimental_system: T1, human ROR2 expressed on the cell surface (human, UniProt Q01974 34-943)
T1 construct: Endogenous ROR2 of human tumour cell lines; also called cell surface ROR2; ROR2 on tumour cell lines
T1 sequence (Q01974 34-943 limits assumed): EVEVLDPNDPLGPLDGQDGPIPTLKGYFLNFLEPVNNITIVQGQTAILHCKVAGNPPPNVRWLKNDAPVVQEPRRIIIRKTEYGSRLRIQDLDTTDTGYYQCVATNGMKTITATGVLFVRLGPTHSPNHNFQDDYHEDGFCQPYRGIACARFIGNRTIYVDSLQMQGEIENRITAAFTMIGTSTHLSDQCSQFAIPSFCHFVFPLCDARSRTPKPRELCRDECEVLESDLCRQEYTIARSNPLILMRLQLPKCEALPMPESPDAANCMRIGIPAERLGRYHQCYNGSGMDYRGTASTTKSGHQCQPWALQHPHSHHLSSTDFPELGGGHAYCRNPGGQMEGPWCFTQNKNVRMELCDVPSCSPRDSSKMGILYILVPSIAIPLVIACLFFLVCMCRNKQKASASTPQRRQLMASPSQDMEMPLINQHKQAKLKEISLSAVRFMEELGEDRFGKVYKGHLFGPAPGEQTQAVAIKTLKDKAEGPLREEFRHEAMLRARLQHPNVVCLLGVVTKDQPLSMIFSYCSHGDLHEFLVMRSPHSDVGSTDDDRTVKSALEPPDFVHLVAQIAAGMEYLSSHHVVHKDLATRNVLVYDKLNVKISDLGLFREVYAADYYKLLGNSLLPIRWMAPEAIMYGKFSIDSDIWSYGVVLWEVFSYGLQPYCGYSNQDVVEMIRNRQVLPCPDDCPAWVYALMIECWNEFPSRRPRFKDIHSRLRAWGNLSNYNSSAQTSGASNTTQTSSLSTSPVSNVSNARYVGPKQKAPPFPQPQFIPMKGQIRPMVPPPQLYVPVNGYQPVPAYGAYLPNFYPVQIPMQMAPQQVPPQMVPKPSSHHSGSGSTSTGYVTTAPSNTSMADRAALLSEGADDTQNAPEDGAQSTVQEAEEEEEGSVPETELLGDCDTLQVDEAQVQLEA
procedure_text: flow cytometry, OCM1 cells (melanoma)
Design: unit not given here
property: binding intensity
Please give the numeric answer without any surrounding text.

Which binding intensity value is on record for ROR2-90 full length human IgG1 antibody (antibody, V domains shown, also called clone #90; antibody #90) VH: EVQLVESGPGLVKPSQTLSLTCTVSGGSISSGGYYWSWIRQHPGKGLEWIGYIYYSGSTYYNPSLKSRVTISVDTSKNQFSLKLSSVTAADTAMYYCARGGLYWTYSQDVWGQGTLVTVSS VL: QPVLTQPPSASGTPGQRVTISCSGSSSNIGSDYVSWYQQLPGTAPKLLIYRNDQRPSGVPDRFSGSKSGTSASLAISGLRSEDEADYYCVAWDDSLSGYVFGSGTKVTVLG ? 18
